Every entry's value here was drawn from patent US20220151982A1.

Let's look at some molecules and their measured Percentage death of MRSA cells, Antibiotics alone.
System: Methicillin-resistant Staphylococcus aureus (MRSA)
assay-info: MRSA killing by CFU counting after 4 h incubation
study-conditions: Table 1; antibiotic at MIC value, 4 hours
Write the answer as a number in %, unit excluded.

A selection of reference data follows.
smiles-structure	value-reported
CO[C@H]1/C=C/O[C@@]2(C)Oc3c(C)c(O)c4c(O)c(c(/C=N/N5CCN(C)CC5)c(O)c4c3C2=O)NC(=O)/C(C)=C\C=C\[C@H](C)[C@H](O)[C@@H](C)[C@@H](O)[C@@H](C)[C@H](OC(C)=O)[C@@H]1C	17
O=C(O)c1cn(C2CC2)c2cc(N3CCNCC3)c(F)cc2c1=O	14
CN(C)[C@@H]1C(O)=C(C(N)=O)C(=O)[C@@]2(O)C(O)=C3C(=O)c4c(O)cccc4[C@@](C)(O)[C@H]3C[C@@H]12	7
CN[C@H](CC(C)C)C(=O)N[C@H]1C(=O)N[C@@H](CC(N)=O)C(=O)N[C@H]2C(=O)N[C@H]3C(=O)N[C@H](C(=O)N[C@H](C(=O)O)c4cc(O)cc(O)c4-c4cc3ccc4O)[C@H](O)c3ccc(c(Cl)c3)Oc3cc2cc(c3O[C@@H]2O[C@H](CO)[C@@H](O)[C@H](O)[C@H]2O[C@H]2C[C@](C)(N)[C@H](O)[C@H](C)O2)Oc2ccc(cc2Cl)[C@H]1O	8

Proceed to the following item.
Please fill in: Percentage death of MRSA cells, Antibiotics alone reported for `O=C(N[C@H](CO)[C@H](O)c1ccc([N+](=O)[O-])cc1)C(Cl)Cl` = 12
